Values compiled from patent US20250352508A1.

Experiment: Pharmacokinetics of tonabersat after single and multiple dosing, 240 to 400 mg, fasted and fed (MAD and DDI parts)
Assay type: in vivo, human
Conditions: human, in vivo, oral, after multiple dosing, Day 14; read-out: geometric mean t1/2
measured parameter: half-life

Inquiry: Any idea what its half-life is? The compound is CC(=O)c1ccc2c(c1)[C@H](NC(=O)c1ccc(F)c(Cl)c1)[C@H](O)C(C)(C)O2
Reply text: 37.5 to 41.6 h

* * *

Assay: Pharmacokinetics of tonabersat after single and repeat oral dosing, 40 and 80 mg once daily
Type: in vivo, human
Settings: human, plasma, po, single and repeat oral dosing; read-out: terminal elimination phase T1/2
measured parameter: half-life

Inquiry: Any idea what its half-life is? The molecule is CC(=O)c1ccc2c(c1)[C@H](NC(=O)c1ccc(F)c(Cl)c1)[C@H](O)C(C)(C)O2 [tonabersat]
Reply text: 24 to 33 h
